kon values, listed per item
# ASSAYED_SYSTEM: T1, full-length SARS-CoV-2 nucleocapsid (N) protein (SARS-CoV-2, NC_045512.2 (Wuhan-Hu-1), UniProt P0DTC9)
# T1 construct: also called SARS-CoV-2 N protein; SARS-CoV-2 N/D7-Tag; not shown: D7-tag, C-terminal, kept
# EXPERIMENT: BLI
# MEASUREMENT_SETUP: one partner purified

| BINDER | kon |
| --- | --- |
| 3B7 (antibody, V domains shown, also called 3B7 hmAb) VH: QMQLVQSGAEVKKPGASVRVSCKVSGYSLTELPMHWVRQAPGKGLEWVGSFDPQDAETTYAQRFQGRVAMTEDTSTDTAYMELSSLRSEDTAVYYCATPAPTIVGVVIYALHIWGQGTMVTVSS VL: EIVLTQSPGTLSLSPGERATLSCRASQRVSDNSLAWYQQKPGQAPSLLIFAASIRAPGIPDRISGTGSGTDFTLTINRLEPEDFVVYFCLQYTTSPPLTFGGGTKLEIK | 355000 M⁻¹ s⁻¹ |
| N83 (antibody, V domains shown, also called N83 hmAb) VH: QVQLQESGPRLVKSSETLSLTCTVSGGSISSGSYYWNWIRQPAGKGLEWIGRVYISGVTSYNPSLKSRVTISLDISKNQFSLQLTSVTAADSAVYYCARGGMAVGAPLYYYFYGMDVWGQGTTVTVSS VL: DVVMTQSPLSLPVTPGEPASISCRSSQSLLHSNGYNYVDWYLQKPGQSPQLMIYLGSNRASGVPDRFSGSGSGTHFTLKISRVEAEDVGVYYCMQALQTLSITFGQGTRLEIK | 639000 M⁻¹ s⁻¹ |
| N31 (antibody, V domains shown, also called N31 hmAb) VH: QMQLVQSGAEVKKPGSSVKVSCKASGGTFSSYGISWVRQAPGQGLEWMGGIIPILGTANYAQRFQGRIALTADESTSTAYMEVSSLRSEDTAVYYCARGMWSNPPGYCCSYMDVWGKGTTVTVSS VL: EIVLTQSPATLSVSPGERVTLACRASQSLRSKLAWYQQKPGQAPRLLIYDASTRATGFPARFSGSGSGTEFTLTISSLQSEDFAVYYCQQYSNWPRTFGQGTKLEIK | 174000 M⁻¹ s⁻¹ |
| N5 (antibody, V domains shown, also called N5 hmAb) VH: QVQLVQSGAEVKKPGSSVKVSCKASGGTFSSYAIGWVRQAPGQGLEWMGAIIPIFGTTIFAQKFQGRVTITADESTTTAYMELSSLRSDDTAVYYCARGGGGVERGVILTRWFDPWGQGTLVTVSS VL: QSVLTQPPSVSAAPGQKVTLSCSGSSSNIGNNHVSWYQQLPGTAPKLLIYDNNKRPSGIPDRFSGSKSGTSATLGITGLQTGDEADYYCGTWDNSLSAGVFGGGTKLTVV | 137000 M⁻¹ s⁻¹ |

Just for reference, paper PMC9927002 is where these values come from.
